Target: CYP2D6 (Homo sapiens, UniProt P10635)
Sequence (P10635 whole entry, canonical isoform): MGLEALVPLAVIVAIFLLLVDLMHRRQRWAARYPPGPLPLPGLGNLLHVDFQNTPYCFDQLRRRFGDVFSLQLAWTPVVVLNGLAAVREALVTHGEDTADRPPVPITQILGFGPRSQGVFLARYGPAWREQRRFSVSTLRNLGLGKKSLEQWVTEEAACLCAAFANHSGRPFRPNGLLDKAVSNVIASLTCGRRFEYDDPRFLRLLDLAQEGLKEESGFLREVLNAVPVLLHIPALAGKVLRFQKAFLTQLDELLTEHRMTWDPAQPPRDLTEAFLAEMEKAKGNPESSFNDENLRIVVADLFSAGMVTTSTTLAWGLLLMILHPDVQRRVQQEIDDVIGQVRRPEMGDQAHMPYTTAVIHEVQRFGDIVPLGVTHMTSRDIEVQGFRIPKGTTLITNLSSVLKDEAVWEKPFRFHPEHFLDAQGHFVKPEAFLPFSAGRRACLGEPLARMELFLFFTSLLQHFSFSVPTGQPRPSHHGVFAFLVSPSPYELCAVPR
Assay: Cytochrome P450 assay (P450-Glo), isoform 2D6
pIC50: −log10 of the molar value.
Measurement Type: pIC50

Entry Smiles: Nc1nc2ccc(C(=O)NCCc3ccc(Cl)cc3)cc2s1
Observed Result: 6.30
--
Entry Smiles: Nc1nc2ccc(C(=O)N(Cc3ccc(Cl)c(Cl)c3)C3CC3)cc2s1
Observed Result: 5.60
--
Entry Smiles: Nc1nc2ccc(C(=O)N(CCc3ccc(Cl)c(Cl)c3)C3CC3)cc2s1
Observed Result: 6.05
--
Entry Smiles: Nc1nc2ccc(C(=O)NCCc3cccc(Cl)c3)cc2s1
Observed Result: 6.05
--
Entry Smiles: Nc1nc2ccc(CN(Cc3ccc(Cl)c(Cl)c3)C3CC3)cc2s1
Observed Result: 5.60
--
Entry Smiles: Nc1nc2ccc(C(=O)NCCc3ccc(Cl)c(Cl)c3)cc2s1
Observed Result: 7.00
--
Entry Smiles: Nc1nc2ccc(C(=O)NCCc3ccc(Br)cc3)cc2s1
Observed Result: 7.00
--
Entry Smiles: Nc1nc2ccc(C(=O)NCCc3cccc(Br)c3)cc2s1
Observed Result: 5.30

---

Each entry below carries its recorded A549 cytotoxicity TGI (total growth inhibition).
System: A549 cells
Experiment: Cytotoxicity against A549 cells (CellTiter-Glo)
Assay type: cell-based
Measurement Type: A549 cytotoxicity TGI (total growth inhibition) (µM)

Compound: Nc1nc2ccc(C(=O)NCCc3cccc(Cl)c3)cc2s1 [Compound 2b]
Unit Info: µM
Observed Result: 95.9

Compound: Nc1nc2ccc(C(=O)N(CCc3ccc(Cl)c(Cl)c3)C3CC3)cc2s1 [Compound 1b]
Unit Info: µM
Observed Result: 54.6

Compound: Nc1nc2ccc(C(=O)NCCc3ccc(Cl)c(Cl)c3)cc2s1 [Compound 1a]
Unit Info: µM
Observed Result: 54.4

Compound: Nc1nc2ccc(C(=O)N(Cc3ccc(Cl)c(Cl)c3)C3CC3)cc2s1 [Compound 1c]
Unit Info: µM
Observed Result: 61.3

Compound: Nc1nc2ccc(CN(Cc3ccc(Cl)c(Cl)c3)C3CC3)cc2s1 [Compound 1d]
Unit Info: µM
Observed Result: 34.4

Compound: Nc1nc2ccc(C(=O)NCCc3cccc(Br)c3)cc2s1 [Compound 2d]
Unit Info: µM
Observed Result: 85.5

---

Experiment: Cytotoxicity assay (MTT) on THP-1-derived macrophages
Assay type: cell-based, Human
Settings: human, THP-1-derived macrophages, cytotoxic concentration for THP1 cells; read-out: CC50 THP1
Measurement Type: CC50 at 72 h

Compound: Nc1nc2ccc(C(=O)N(CCc3ccc(Cl)c(Cl)c3)C3CC3)cc2s1
Observed Result: 25 to 50 µM

Compound: Nc1nc2ccc(C(=O)N(Cc3ccc(Cl)c(Cl)c3)C3CC3)cc2s1
Observed Result: > 100 µM

Compound: Nc1nc2ccc(C(=O)N(CCc3ccc(Cl)c(Cl)c3)c3ccccc3)cc2s1
Observed Result: > 100 µM

Compound: Nc1nc2ccccc2n1Cc1ccc(Cl)c(Cl)c1 [I, reference compound]
Observed Result: 8 µM

Compound: Nc1nc2ccc(CN(Cc3ccc(Cl)c(Cl)c3)C3CC3)cc2s1
Observed Result: 25 to 50 µM

Compound: Nc1nc2ccc(C(=O)NCCc3ccccc3)cc2s1
Observed Result: > 100 µM

---

Target: UniProtKB Q12809
Sequence (Q12809 whole entry): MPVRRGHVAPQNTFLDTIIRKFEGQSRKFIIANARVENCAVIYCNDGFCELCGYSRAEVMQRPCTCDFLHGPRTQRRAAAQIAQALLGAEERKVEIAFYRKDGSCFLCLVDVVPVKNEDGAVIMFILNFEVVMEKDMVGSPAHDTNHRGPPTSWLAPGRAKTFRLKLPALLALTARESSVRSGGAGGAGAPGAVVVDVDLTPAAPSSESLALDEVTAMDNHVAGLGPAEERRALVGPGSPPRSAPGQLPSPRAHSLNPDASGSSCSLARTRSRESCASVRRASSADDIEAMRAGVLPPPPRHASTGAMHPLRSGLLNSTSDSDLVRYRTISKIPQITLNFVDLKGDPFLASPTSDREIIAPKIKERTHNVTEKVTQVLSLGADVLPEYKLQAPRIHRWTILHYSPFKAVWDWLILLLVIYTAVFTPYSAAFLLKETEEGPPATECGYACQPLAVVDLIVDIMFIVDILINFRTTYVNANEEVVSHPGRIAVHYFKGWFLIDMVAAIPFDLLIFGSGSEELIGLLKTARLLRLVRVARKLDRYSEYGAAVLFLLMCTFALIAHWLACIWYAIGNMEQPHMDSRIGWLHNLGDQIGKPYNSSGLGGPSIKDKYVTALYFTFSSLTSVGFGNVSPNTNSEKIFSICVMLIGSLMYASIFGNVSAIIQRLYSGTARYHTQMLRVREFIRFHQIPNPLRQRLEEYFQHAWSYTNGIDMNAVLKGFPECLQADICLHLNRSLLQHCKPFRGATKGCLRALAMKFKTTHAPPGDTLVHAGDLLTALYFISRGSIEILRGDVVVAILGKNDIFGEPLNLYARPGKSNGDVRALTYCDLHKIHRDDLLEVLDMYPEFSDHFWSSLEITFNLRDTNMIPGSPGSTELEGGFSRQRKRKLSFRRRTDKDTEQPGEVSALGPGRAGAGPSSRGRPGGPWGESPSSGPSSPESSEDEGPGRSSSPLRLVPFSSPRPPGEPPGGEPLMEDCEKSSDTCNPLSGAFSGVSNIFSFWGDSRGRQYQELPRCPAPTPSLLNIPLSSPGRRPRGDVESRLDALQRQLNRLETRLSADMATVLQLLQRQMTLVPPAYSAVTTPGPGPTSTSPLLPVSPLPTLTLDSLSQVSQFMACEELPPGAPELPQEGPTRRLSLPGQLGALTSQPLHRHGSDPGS

Compound: Nc1nc2ccc(C(=O)NCCc3ccc(Br)cc3)cc2s1
Unit Info: µM
IC50: 3.2
--
Compound: Nc1nc2ccccc2n1Cc1ccc(Cl)c(Cl)c1 [I, reference compound]
Unit Info: µM
IC50: 0.85
--
Compound: Nc1nc2ccc(C(=O)NCCc3ccccc3)cc2s1
Unit Info: µM
IC50: 4.5
--
Compound: Nc1nc2ccc(C(=O)NCCc3ccc(Cl)cc3)cc2s1
Unit Info: µM
IC50: 4.5
--
Compound: Nc1nc2ccc(C(=O)NCCc3cccc(Br)c3)cc2s1
Unit Info: µM
IC50: 3.2
--
Compound: Nc1nc2ccc(C(=O)NCCc3cccc(Cl)c3)cc2s1
Unit Info: µM
IC50: 2.8
